The reader will find reported MIC80 values listed item by item below.
- System: Candida albicans
- ASSAY PROCEDURE: Antifungal activity against Candida albicans ATCC 10231 assessed as reduction in fungal growth incubated for 48 hrs by microplate reader analysis
- Assay type: functional

{"columns": ["CHEMICAL STRUCTURE", "MIC80 [µM]"],
 "data": [
  ["CC[C@H](C)C[C@H](C)CCCCCCCCC(=O)N[C@H]1C[C@@H](O)[C@@H](NCCN)NC(=O)[C@@H]2[C@@H](O)CCN2C(=O)[C@H]([C@H](O)CCN)NC(=O)[C@H]([C@H](O)[C@@H](O)c2ccc(O)cc2)NC(=O)[C@@H]2C[C@@H](O)CN2C(=O)[C@H]([C@@H](C)O)NC1=O", 0.03],
  ["C[C@@H]1[C@H](O)[C@@H](C)/C=C/C=C/C=C/C=C/C=C/C=C/C=C/[C@H](O[C@@H]2O[C@H](C)[C@@H](O)[C@H](N)[C@@H]2O)C[C@@H]2O[C@](O)(C[C@@H](O)C[C@@H](O)[C@H](O)CC[C@@H](O)C[C@@H](O)CC(=O)O[C@H]1C)C[C@H](O)[C@H]2C(=O)O", 0.6]
]}

###

Some compounds, each annotated with its measured MFC<=99.9.
- Test system: Aspergillus fumigatus
- ASSAY PROCEDURE: Antifungal activity against Aspergillus fumigatus NRRL6113 assessed as reduction in fungal viability incubated for 48 hrs by microplate reader analysis
- Format: functional
Numbered stars: 1 amine (or outer) side, 2 acyl side, 3 side chain; on linkers, the order of the positions; unused ones are H or OH. Square brackets hold non-standard residues; d marks the D form. Peptide text beside a SMILES is read from it. X1 = CC[C@@H](C)[C@@H](O[*:1])C(=O)[*:2]; NMeVal(β-OH) = CN[C@H](C(=O)O)C(C)(C)O; NMeF = CN[C@@H](Cc1ccccc1)C(=O)O; aIle = CC[C@@H](C)[C@H](N)C(=O)O; NMeV = CN[C@H](C(=O)O)C(C)C

{"columns": ["COMPOUND", "MFC<=99.9"],
 "data": [
  ["CC[C@@H](C)[C@@H]1NC(=O)[C@@H]2CCCN2C(=O)[C@H](Cc2ccccc2)N(C)C(=O)[C@H](Cc2ccccc2)NC(=O)[C@H](C(C)C)N(C)C(=O)[C@@H]([C@H](C)CC)OC(=O)[C@H](C(C)(C)O)N(C)C(=O)[C@H](CC(C)C)NC(=O)[C@H](C(C)C)N(C)C1=O [AUREOBASIDIN A] (cyclo(F[NMeF]P[aIle][NMeV]L[NMeVal(β-OH)][X1][NMeV]))", ">10 µM"],
  ["CCC(C)n1ncn(-c2ccc(N3CCN(c4ccc(OCC5COC(Cn6cncn6)(c6ccc(Cl)cc6Cl)O5)cc4)CC3)cc2)c1=O (stereo not drawn)", ">10 µM"],
  ["CC[C@H](C)C[C@H](C)CCCCCCCCC(=O)N[C@H]1C[C@@H](O)[C@@H](NCCN)NC(=O)[C@@H]2[C@@H](O)CCN2C(=O)[C@H]([C@H](O)CCN)NC(=O)[C@H]([C@H](O)[C@@H](O)c2ccc(O)cc2)NC(=O)[C@@H]2C[C@@H](O)CN2C(=O)[C@H]([C@@H](C)O)NC1=O", ">10 µM"]
]}
